Test: Ex vivo biodistribution in mice bearing LNCaP tumor xenografts
Parameters: species or system mouse (male NOD-scid IL2Rg^null (NSG))
Settings: mouse, spleen, iv, 1 h Blocked (co-injection of 2-PMPA, 0.5 mg), mean ± SD; read-out: Spleen uptake
VALUE TYPE: tissue uptake at 1 h (%ID/g)

| COMPOUND | tissue uptake at 1 h / %ID/g |
| --- | --- |
| O=C(O)CCC[C@H](NC(=O)N[C@@H](CCCCNC(=O)[C@H](Cc1c2ccccc2cc2ccccc12)NC(=O)[C@H]1CC[C@H](CNC(=O)CNC(=O)[C@H](CCCCNC(=O)c2ccc(F)nc2)NC(=O)CN(CC(=O)O)CC(=O)O)CC1)C(=O)O)C(=O)O [^18F-KL01130] | 0.31 |
| O=C(O)CC[C@H](NC(=O)N[C@@H](CCCCNC(=O)[C@H](Cc1c2ccccc2cc2ccccc12)NC(=O)[C@H]1CC[C@H](CNC(=O)[C@H](CCNC(=O)c2ccc(F)nc2)NC(=O)CCC(=O)N(CC(=O)O)CC(=O)O)CC1)C(=O)O)C(=O)O [^18F-KL01120] | 0.29 |

---

Experiment: Ex vivo biodistribution in mice bearing LNCaP tumor xenografts
Parameters: species or system mouse (male NOD-scid IL2Rg^null (NSG))
Conditions: mouse, adrenal glands, iv, 1 h Blocked (co-injection of 2-PMPA, 0.5 mg), mean ± SD; read-out: Adrenal Glands uptake
VALUE TYPE: tissue uptake at 1 h (%ID/g)

| MOLECULE | REPORTED RESULT |
| --- | --- |
| O=C(O)CC[C@H](NC(=O)N[C@@H](CCCCNC(=O)[C@H](Cc1c2ccccc2cc2ccccc12)NC(=O)[C@H]1CC[C@H](CNC(=O)[C@H](CCNC(=O)c2ccc(F)nc2)NC(=O)CCC(=O)N(CC(=O)O)CC(=O)O)CC1)C(=O)O)C(=O)O [^18F-KL01120] | 0.48 |
| O=C(O)CCC[C@H](NC(=O)N[C@@H](CCCCNC(=O)[C@H](Cc1c2ccccc2cc2ccccc12)NC(=O)[C@H]1CC[C@H](CNC(=O)CNC(=O)[C@H](CCCCNC(=O)c2ccc(F)nc2)NC(=O)CN(CC(=O)O)CC(=O)O)CC1)C(=O)O)C(=O)O [^18F-KL01130] | 0.39 |

---

Experiment: Ex vivo biodistribution in mice bearing LNCaP tumor xenografts
Design: species or system mouse (male NOD-scid IL2Rg^null (NSG))
Conditions: mouse, pancreas, iv, 1 h Blocked (co-injection of 2-PMPA, 0.5 mg), mean ± SD; read-out: Pancreas uptake
VALUE TYPE: tissue uptake at 1 h (%ID/g)

| MOLECULE | UNITS | REPORTED RESULT |
| --- | --- | --- |
| O=C(O)CCC[C@H](NC(=O)N[C@@H](CCCCNC(=O)[C@H](Cc1c2ccccc2cc2ccccc12)NC(=O)[C@H]1CC[C@H](CNC(=O)CNC(=O)[C@H](CCCCNC(=O)c2ccc(F)nc2)NC(=O)CN(CC(=O)O)CC(=O)O)CC1)C(=O)O)C(=O)O [^18F-KL01130] | %ID/g | 0.32 |
| O=C(O)CC[C@H](NC(=O)N[C@@H](CCCCNC(=O)[C@H](Cc1c2ccccc2cc2ccccc12)NC(=O)[C@H]1CC[C@H](CNC(=O)[C@H](CCNC(=O)c2ccc(F)nc2)NC(=O)CCC(=O)N(CC(=O)O)CC(=O)O)CC1)C(=O)O)C(=O)O [^18F-KL01120] | %ID/g | 0.27 |
